Examples of compounds with documented IC50 follow.
# Test system: Human glioma cell line U87 MG
# ASSAY: Inhibition of proliferation of the U87 MG cell line (DAPI, In Cell Analyzer)
# Assay type: cell-based
# MEASUREMENT_CONDITIONS: Homo sapiens, U-87 MG; 72 hours incubation; read-out: IC50, proliferation of U87MG Cell Line
Respond numerically; units are nM and should not be typed.

[
  {
    "COMPOUND": "CCN1CCN(Cc2ccc(Nc3ncc(F)c(-c4cc(F)c5nc(C)n(C(C)C)c5c4)n3)nc2)CC1 [LY2835219, reference compound]",
    "UNITS_LABEL": "nM",
    "IC50": 151
  }
]

In the following, a different compound is considered.
In: Report IC50 for CC1=Nc2c(F)cc(-c3nc(Nc4ccc(C5CCN(C)CC5)cn4)ncc3F)cc2C12CCCC2 tested on Human glioma cell line U87 MG.
Out: 35.4

Values from patent US11091476B2
